- System: SK-MEL-2
- PROTOCOL_NOTES: NCI60 one-dose screen
- Type: cell-based
- SETTINGS: Homo sapiens; SK-MEL-2, 10 μM, one-dose; read-out: Growth percent
ENDPOINT: activity at 10 µM (%)
Quick reminder: number only, in %, skip the unit.

CC[C@]12C=CCN3CC[C@@]4(c5ccc(OC)cc5N(C)[C@H]4[C@@](O)(C(=O)OC)[C@@H]1OC(=O)CCC[P+](c1ccc(OC)cc1)(c1ccc(OC)cc1)c1ccc(OC)cc1)[C@@H]32 = -90.6
CC[C@]12C=CCN3CC[C@@]4(c5ccc(OC)cc5N(C)[C@H]4[C@@](O)(C(=O)OC)[C@@H]1OC(=O)CCC[P+](c1ccccc1)(c1ccccc1)c1ccccc1)[C@@H]32 [compound 3, reference compound] = -65.3
CCC12C=CCN3CCC4(c5ccc(OC)cc5N(C)C4C(O)(C(=O)OC)C1OC(=O)c1ccc(C[P+](c4ccccc4)(c4ccccc4)c4ccccc4)cc1)C32 (centres unmarked) = -77.8
CC[C@]12C=CCN3CC[C@@]4(c5ccc(OC)cc5N(C)[C@H]4[C@@](O)(C(=O)OC)[C@@H]1OC(=O)CCC[P+](c1cc(C)c(OC)c(C)c1)(c1cc(C)c(OC)c(C)c1)c1cc(C)c(OC)c(C)c1)[C@@H]32 = -98.2

// next entry
Exercise: If you can, please state the reported activity at 10 µM value of CC[C@]12C=CCN3CC[C@@]4(c5ccc(OC)cc5N(C)[C@H]4[C@@](O)(C(=O)OC)[C@@H]1OC(=O)CCCC[P+](c1ccc(F)cc1)(c1ccc(F)cc1)c1ccc(F)cc1)[C@@H]32 [10c] .
Key: -54
